System: Trypanosoma cruzi
Assay: Antitrypanosomal activity against Trypanosoma cruzi MHOM/Pe/2011/Arequipa;DTU 5 epimastigotes measured after 72 hrs by Neubauer hemocytometer
Assay type: functional, organism-based
Conditions: MHOM/Pe/2011/Arequipa;DTU 5, 72 h
Each item that follows carries a reported IC50.
Reply with the number and its unit after it.

O=C(CCN1CCN(c2ccc(F)cc2)CC1)c1ccc(O)cc1; 24.4 µM
COc1ccc(C(=O)CCNCCc2ccc(Cl)cc2)cc1; 51.6 µM
COc1ccc(C(=O)CCNc2ccc(C(F)(F)F)cc2)cc1; 17.8 µM
COc1ccc(C(=O)CCNc2ccc(F)cc2)cc1; 14.8 µM
COc1ccc(C(=O)CCNCCc2ccc(C(F)(F)F)cc2)cc1; 59.7 µM
O=C(CCN1CCN(c2ccc([N+](=O)[O-])cc2)CC1)c1ccc(O)cc1; 24.8 µM
O=C(Cn1ccnc1[N+](=O)[O-])NCc1ccccc1; 26.2 µM
O=C(CCN1CCN(c2ccc(Cl)cc2)CC1)c1ccc(O)cc1; 18.6 µM
COc1ccc(C(=O)CCNCCc2ccc(F)cc2)cc1; 35.6 µM
O=C(CCN1CCN(c2ccc(C(F)(F)F)cc2)CC1)c1ccc(O)cc1; 22.7 µM

I am curious: what IC50 value has been reported for COc1ccc(C(=O)CCNc2ccc(Cl)cc2)cc1 ?
18.7 µM
